- measured_target: GAL1R (Homo sapiens)
- Sequence (P47211 whole entry, species assumed): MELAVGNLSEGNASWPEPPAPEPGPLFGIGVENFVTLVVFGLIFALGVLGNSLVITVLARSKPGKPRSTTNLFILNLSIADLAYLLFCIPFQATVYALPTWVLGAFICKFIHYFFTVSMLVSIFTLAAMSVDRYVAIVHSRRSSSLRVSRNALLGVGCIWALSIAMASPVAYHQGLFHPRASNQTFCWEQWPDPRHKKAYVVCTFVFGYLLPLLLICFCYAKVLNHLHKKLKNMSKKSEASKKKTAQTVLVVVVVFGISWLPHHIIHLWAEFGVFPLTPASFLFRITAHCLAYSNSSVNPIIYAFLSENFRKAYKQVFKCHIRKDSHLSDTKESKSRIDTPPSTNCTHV
- assay_info: PathHunter eXpress β-arrestin recruitment assay, GAL1R
- Format: cell-based
- Parameters: expressed in transfected cells
- measurement_conditions: Table 3; CHO-K1 cells co-expressing GAL1R and β-arrestin 2; 10 µM to 5 nM; (average) ratio, (n) in cell = number of assays; NA = ratio above 1000
- Experimental: To evaluate the ability of lanthipeptides to recruit ß-arrestins via GAL1R or via GAL2R, we used the PathHunter® eXpress GAL1R, CHO-K1, β-arrestin GPCR Assay and the PathHunter® eXpress GAL2R, CHO-K1, β-arrestin, GPCR Assay from Eurofins-DiscoverX. […] Next, 55 µL of Working Detection Solution was added, and after 1 h of incubation at room temperature in the dark, the chemiluminescent signal was read with a Synergy HT Biotek reader.
Square brackets hold non-standard residues; d marks the D form. Ends that are not written are not given here. pGlu = O=C1CC[C@@H](C(=O)O)N1
readout_type: EC50 ratios to Gal-(1-15), GAL1R ß-Arrestin

* [pGlu]WNLNAAGYLLGATAVC (also: sidechain bridge or staple (positions not given here)) [Variant M91, pyroglutamate- and methyllanthionine-containing galanin variant] | 3 (1)
* GWNLNAAGYLLATHACGNHR (also: sidechain bridge or staple (positions not given here)) [Variant M50, methyllanthionine-containing galanin variant produced in L. lactis] | 3.8 (1)

-- ask Any idea what its EC50 ratios to Gal-(1-15), GAL1R ß-Arrestin is? The substance is [pGlu]WNLNAAGYLLGPTAVC (also: sidechain bridge or staple (positions not given here)) [Variant M87, pyroglutamate- and methyllanthionine-containing galanin variant]
-- reply 260 (1)

-- ask Any idea what its EC50 ratios to Gal-(1-15), GAL1R ß-Arrestin is? The substance is [pGlu]WNLNAAGYLLGATAVGCHR (also: sidechain bridge or staple (positions not given here)) [Variant M76b, pyroglutamate- and methyllanthionine-containing galanin variant]
-- reply 9.6 (1)

-- ask Any idea what its EC50 ratios to Gal-(1-15), GAL1R ß-Arrestin is? The substance is GWNLNAAGYLLATHACG (also: sidechain bridge or staple (positions not given here)) [Variant M89, methyllanthionine-containing galanin variant produced in L. lactis]
-- reply 148 (1)

-- ask Any idea what its EC50 ratios to Gal-(1-15), GAL1R ß-Arrestin is? The substance is GWNLNAAGYLLGPHTVGCHR (also: sidechain bridge or staple (positions not given here)) [Variant M52, methyllanthionine-containing galanin variant produced in L. lactis]
-- reply 8.3 (1)

-- ask Any idea what its EC50 ratios to Gal-(1-15), GAL1R ß-Arrestin is? The substance is GWNLNAAGYLLGATAVGCHR (also: sidechain bridge or staple (positions not given here)) [Variant M76, methyllanthionine-containing galanin variant produced in L. lactis]
-- reply 1.0 (1)

-- ask Any idea what its EC50 ratios to Gal-(1-15), GAL1R ß-Arrestin is? The substance is GWNLNAAGYLLGPHATGNCR (also: sidechain bridge or staple (positions not given here)) [Variant M74, methyllanthionine-containing galanin variant produced in L. lactis]
-- reply 2.3 (1)

-- ask Any idea what its EC50 ratios to Gal-(1-15), GAL1R ß-Arrestin is? The substance is GWNLNAAGYLLGATAVCNHR (also: sidechain bridge or staple (positions not given here)) [Variant M51, methyllanthionine-containing galanin variant produced in L. lactis]
-- reply 1.5 (2)

###

- assay_info: In vitro stability in rat serum
- Format: in vitro ADME
- measurement_conditions: 5% rat serum, 20 mM phosphate pH 7.4, 37 °C, 10 µM; after 30 min; HPLC A280; n = 2–3; read-out: Peptide degraded in rat serum
readout_type: metabolised at 0.5 h, 10 µM (%)
Give the quantity in %, number only.

-- ask Any idea what its metabolised at 0.5 h, 10 µM is? The compound is CC(C)C[C@H](NC(=O)[C@H](CC(C)C)NC(=O)[C@H](Cc1ccc(O)cc1)NC(=O)CNC(=O)[C@H](C)NC(=O)[C@H](CO)NC(=O)[C@H](CC(N)=O)NC(=O)[C@H](CC(C)C)NC(=O)[C@@H](NC(=O)[C@H](Cc1c[nH]c2ccccc12)NC(=O)CN)[C@@H](C)O)C(=O)NCC(=O)N1CCC[C@H]1C(=O)N[C@@H](Cc1c[nH]cn1)C(=O)N[C@@H](C)C(N)=O [GAL-(1–15), reference compound]
-- reply 80

###

- assay_info: In vitro stability in rat serum
- Format: in vitro ADME
- measurement_conditions: rat, serum, pH 7.4
Numbered stars: 1 amine (or outer) side, 2 acyl side, 3 side chain; on linkers, the order of the positions; unused ones are H or OH. Bridge positions count the residues as written; N and C are the ends. Square brackets hold non-standard residues; d marks the D form. Peptide text beside a SMILES is read from it. dAbu(3S-yl) = C[C@@H]([C@@H](N[*:1])C(=O)[*:2])[*:3]; pGlu = O=C1CC[C@@H](C(=O)O)N1
readout_type: half-life at 10 µM

-- ask Any idea what its half-life at 10 µM is? The compound is CC(C)C[C@H](NC(=O)[C@H](CC(C)C)NC(=O)[C@H](Cc1ccc(O)cc1)NC(=O)CNC(=O)[C@H](C)NC(=O)[C@H](C)NC(=O)[C@H](CC(N)=O)NC(=O)[C@H](CC(C)C)NC(=O)[C@H](CC(N)=O)NC(=O)[C@H](Cc1c[nH]c2ccccc12)NC(=O)[C@@H]1CCC(=O)N1)C(=O)N[C@@H](C)C(=O)N[C@H]1C(=O)N[C@@H](Cc2c[nH]cn2)C(=O)N[C@@H](C)C(=O)N[C@H](C(=O)NCC(=O)O)CS[C@H]1C [Variant M89b] ([pGlu]WNLNAAGYLLA[dAbu(3S-yl)]HACG-OH; thioether 13-16; C-terminus assumed)
-- reply > 24 h

###

Quick reference for EC50 ratios to Gal-(1-15), GAL2R Ca-efflux among some substances
- measured_target: GAL2R (Homo sapiens, UniProt O43603)
- Sequence (O43603 whole entry, species assumed): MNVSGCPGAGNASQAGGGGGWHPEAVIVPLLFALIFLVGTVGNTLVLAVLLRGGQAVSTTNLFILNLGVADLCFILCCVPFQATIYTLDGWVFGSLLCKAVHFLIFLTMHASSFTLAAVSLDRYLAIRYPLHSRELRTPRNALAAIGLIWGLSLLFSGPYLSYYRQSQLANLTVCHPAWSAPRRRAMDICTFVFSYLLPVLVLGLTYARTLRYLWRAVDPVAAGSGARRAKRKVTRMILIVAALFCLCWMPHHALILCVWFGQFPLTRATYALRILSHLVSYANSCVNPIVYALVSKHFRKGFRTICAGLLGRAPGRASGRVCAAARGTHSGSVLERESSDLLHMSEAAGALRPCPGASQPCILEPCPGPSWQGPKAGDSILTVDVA
- assay_info: Fluo-4 Direct calcium assay (Ca efflux) in HEK293 cells overexpressing GAL2R
- Type: cell-based
- measurement_conditions: Table 3; HEK293 cells stably overexpressing GAL2R; Fluo-4, from 10 µM; (average) ratio, (n) in cell = number of assays; NA = ratio above 1000
Square brackets hold non-standard residues; d marks the D form. Ends that are not written are not given here. pGlu = O=C1CC[C@@H](C(=O)O)N1

These solved cases illustrate the format of a correct answer.
• GWNLNAAGYLLGATAVGCHR (also: sidechain bridge or staple (positions not given here)) [Variant M76, methyllanthionine-containing galanin variant produced in L. lactis] = 0.9 (1)
• [pGlu]WNLNAAGYLLGPHTVGCHR (also: sidechain bridge or staple (positions not given here)) [Variant M83, pyroglutamate- and methyllanthionine-containing galanin variant] = 7.3 (1)
• GWNLNAATYLCGPHAVGNHR (also: sidechain bridge or staple (positions not given here)) [Variant M60, methyllanthionine-containing galanin variant produced in L. lactis] = 8.7 (1)
• GWNLNAAGYLLGPHTVGCHR (also: sidechain bridge or staple (positions not given here)) [Variant M52, methyllanthionine-containing galanin variant produced in L. lactis] = 1.9 (1)
• GWNLNAAGYLLATHACGNHR (also: sidechain bridge or staple (positions not given here)) [Variant M50, methyllanthionine-containing galanin variant produced in L. lactis] = 3.5 (2)

-- ask Missing value: EC50 ratios to Gal-(1-15), GAL2R Ca-efflux, GAL2R (Homo sapiens, UniProt O43603), entry [pGlu]WNLNAAGYLLGATAVGCHR (also: sidechain bridge or staple (positions not given here)) [Variant M76b, pyroglutamate- and methyllanthionine-containing galanin variant] . Fill in?
-- reply 1.0 (1)

-- ask Missing value: EC50 ratios to Gal-(1-15), GAL2R Ca-efflux, GAL2R (Homo sapiens, UniProt O43603), entry GWNLNAAGYLLATHACG (also: sidechain bridge or staple (positions not given here)) [Variant M89, methyllanthionine-containing galanin variant produced in L. lactis] . Fill in?
-- reply 2.7 (1)

###

- assay_info: In vitro stability in brain plasma
- Type: in vitro ADME, rat
- measurement_conditions: Sprague-Dawley, rat, other tissue homogenate, pH 7.4
Numbered stars: 1 amine (or outer) side, 2 acyl side, 3 side chain; on linkers, the order of the positions; unused ones are H or OH. Bridge positions count the residues as written; N and C are the ends. Square brackets hold non-standard residues; d marks the D form. Peptide text beside a SMILES is read from it. dAbu(3S-yl) = C[C@@H]([C@@H](N[*:1])C(=O)[*:2])[*:3]; pGlu = O=C1CC[C@@H](C(=O)O)N1
readout_type: remaining at 6 h, 10 µM

-- ask Any idea what its remaining at 6 h, 10 µM is? The compound is CC(C)C[C@H](NC(=O)[C@H](CC(C)C)NC(=O)[C@H](Cc1ccc(O)cc1)NC(=O)CNC(=O)[C@H](C)NC(=O)[C@H](C)NC(=O)[C@H](CC(N)=O)NC(=O)[C@H](CC(C)C)NC(=O)[C@H](CC(N)=O)NC(=O)[C@H](Cc1c[nH]c2ccccc12)NC(=O)[C@@H]1CCC(=O)N1)C(=O)N[C@@H](C)C(=O)N[C@H]1C(=O)N[C@@H](Cc2c[nH]cn2)C(=O)N[C@@H](C)C(=O)N[C@H](C(=O)NCC(=O)O)CS[C@H]1C [Variant M89b] ([pGlu]WNLNAAGYLLA[dAbu(3S-yl)]HACG-OH; thioether 13-16; C-terminus assumed)
-- reply ~85%
